target: Full-length WT ClbP (Escherichia coli)
pIC50: −log10 of the molar value.

smilesStructure | pIC50
CCCCCCCC(=O)N[C@H](CC(N)=O)C(=O)NCCc1cncs1 | > 4.00
CCCCCCCC(=O)N[C@H](CC(N)=O)C(=O)NCCC1CCNCC1 | 3.52 to 4.00
CCCCCCCC(=O)N[C@](C)(CC(N)=O)C(=O)NCCc1ccc(O)cc1 | < 3.52
CCCCCCCC(=O)N[C@H](CC(N)=O)C(=O)NCCc1ccc(OC)nc1 | > 4.00
CCCCCCCC(=O)N[C@H](CC(N)=O)C(=O)NCCOc1c(F)cccc1F | > 4.00
NC(=O)C[C@@H](NC(=O)/C=C/CC1CCCC1)C(=O)NCCc1ccc(O)cc1 | > 4.00
CCCCCCCNC(=O)[C@H](CC(N)=O)NC(=O)OCc1ccccc1 | 3.52 to 4.00
CCCCCCCC(=O)N[C@H](CC(N)=O)C(=O)NCCc1ccc(Cl)cc1 | > 4.00
CCCCCCCC(=O)N[C@H](CC(N)=O)c1nc2ccccc2[nH]1 | > 4.00
CCCCCCCC(=O)N[C@H](CC(=O)NOC)C(=O)NCCc1ccc(O)cc1 | > 4.00
CCCCCCCC(=O)N[C@H](CC(N)=O)C(=O)NCCc1ccc(O)c(O)c1 | > 4.00
CCCCCCCC(=O)N[C@H](CC(=O)NC)C(=O)NCCc1ccccc1 | 3.52 to 4.00
CCCCCCCCCC(=O)N[C@H](CC(N)=O)C(=O)NCCc1ccccn1 | > 4.00
NC(=O)C[C@@H](NC(=O)CCCC1CCCCC1)C(=O)NCCc1ccccn1 | > 4.00
O=C(/C=C/CC1CCCC1)N[C@H](CC(=O)NO)C(=O)NCCc1ccc(O)cc1 | > 4.00
NC(=O)C[C@@H](NC(=O)/C=C/CC1CCCC1)C(=O)NCCc1ccccc1 | > 4.00
CCCCCCCCCC(=O)N[C@H](CC(N)=O)C(=O)NCCc1ccccc1 | > 4.00
CCCCCCCC(=O)N[C@H](CC(N)=O)c1nnn(CCc2ccccc2)n1 | 3.52 to 4.00
CCCCCCCC(=O)N[C@H](CC(N)=O)C(=O)c1nccn1C | 3.52 to 4.00

----------
target: UniProt Q0P7K6; assay: ClbP whole cell activity (inhibition) assay, fluorogenic substrate; format: cell-based, E. coli
pIC50: −log10 of the molar value.

smilesStructure | pIC50
CCCCCCCC(=O)N[C@H](CC(=O)NOC)C(=O)NCCc1ccc(O)cc1 | 3.52 to 4.00
CCCCCCC(C)(C)C(=O)N[C@@H](CNCCc1ccccc1)CC(N)=O | < 3.52
CCCCCCCC(=O)N[C@H](CC(N)=O)c1nc2ccccc2[nH]1 | < 3.52
O=C(C[C@@H](NC(=O)CCC1CCCCC1)C(=O)NCCc1ccc(O)cc1)NO | > 4.00

----------
target: ClbP (Escherichia coli); assay: ClbP whole cell activity (inhibition) assay, fluorogenic substrate; format: cell-based, E. coli

smilesStructure | IC50
NC(=O)C[C@@H](NC(=O)CCCCCCCCC(F)(F)F)C(=O)NCCc1ccc(O)cc1 | < 100 µM
NC(=O)C[C@@H](NC(=O)CCCC1CCCCCC1)C(=O)NCCc1ccccc1 | < 100 µM
CCCCCCCC(=O)N[C@H](CC(N)=O)C(=O)NCCc1cccc(OC)c1 | 100 to 300 µM
CCCCCCCC(=O)N[C@H](CC(N)=O)C(=O)c1nccn1C | > 300 µM
CCCCCCCC(=O)N[C@H](CC(N)=O)C(=O)NCCc1cccnc1 | < 100 µM
CCCCCCCNC(=O)[C@H](CC(N)=O)NC(=O)OCc1ccccc1 | > 300 µM
CCCCCCCC(=O)N[C@@H](CNCCc1ccccc1)CC(N)=O | > 300 µM
O=C(C[C@@H](NC(=O)CCC1CCCCC1)C(=O)NCCc1ccc(O)c(O)c1)NO | 100 to 300 µM
CCCCCCCC(=O)N[C@H](CC(N)=O)C(=O)NCCc1ccccc1 | < 100 µM
CCCCCCCC(=O)N[C@H](CC(N)=O)C(=O)NCCc1ccccn1 | < 100 µM
NC(=O)C[C@@H](NC(=O)CC1CCCCC1)C(=O)NCCc1ccccc1 | 100 to 300 µM
CCCCCCCNC(=O)[C@H](CC(N)=O)NC(=O)Oc1ccccc1 | > 300 µM
CCCCCCCC(=O)N[C@H](CC(N)=O)C(=O)NCCc1ccc(C(F)(F)F)cc1 | > 300 µM
CCCCCCCC(=O)N[C@H](CC(N)=O)c1nnn(CCc2ccccc2)n1 | > 300 µM
CCCCCCCC(=O)N[C@H](CC(N)=O)C(=O)NCCc1ccc(=O)[nH]c1 | < 100 µM
O=C(/C=C/CC1CCCC1)N[C@H](CC(=O)NO)C(=O)NCCc1ccc(O)cc1 | < 100 µM
CCCCCCCC(=O)N[C@H](CC(N)=O)C(=O)NCCc1ccc(F)cc1 | < 100 µM
